biological target: Man(a1-2)Man(a1-3)[Man(a1-2)Man(a1-6)]Man; experiment: glycan array binding signal (z-score within array); higher = stronger binding; settings: glycan notation: IUPAC condensed, linker removed
The entries come from a sample that favours the strongest signals as a whole.
Below: a set of entries, each annotated with reported glycan array binding signal (z-score).

Example entries begin here.
Consider the binder DC-ASGPR L+GEE (Homo sapiens) (protein) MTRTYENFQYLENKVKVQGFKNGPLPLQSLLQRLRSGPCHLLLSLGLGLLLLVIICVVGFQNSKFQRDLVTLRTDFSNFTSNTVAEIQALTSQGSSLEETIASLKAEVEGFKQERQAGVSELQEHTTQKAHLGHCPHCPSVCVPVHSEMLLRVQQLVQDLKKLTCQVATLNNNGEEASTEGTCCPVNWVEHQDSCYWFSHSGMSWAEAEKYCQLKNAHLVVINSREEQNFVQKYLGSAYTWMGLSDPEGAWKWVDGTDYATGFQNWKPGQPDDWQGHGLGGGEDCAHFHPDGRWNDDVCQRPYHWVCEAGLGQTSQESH and give its measured glycan array binding signal (z-score).
-0.348

Consider the binder DC-SIGN (Canis lupus), XP_853402 (protein) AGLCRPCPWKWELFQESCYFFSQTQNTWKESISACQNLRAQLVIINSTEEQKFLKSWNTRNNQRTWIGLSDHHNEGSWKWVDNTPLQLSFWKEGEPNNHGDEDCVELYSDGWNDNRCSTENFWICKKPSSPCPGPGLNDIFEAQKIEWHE and give its measured glycan array binding signal (z-score).
3.37

// next item, glycan array binding signal (z-score) requested
Consider the binder MpAFP NterminalRI GFP (Marinomonas primoryensis) (protein) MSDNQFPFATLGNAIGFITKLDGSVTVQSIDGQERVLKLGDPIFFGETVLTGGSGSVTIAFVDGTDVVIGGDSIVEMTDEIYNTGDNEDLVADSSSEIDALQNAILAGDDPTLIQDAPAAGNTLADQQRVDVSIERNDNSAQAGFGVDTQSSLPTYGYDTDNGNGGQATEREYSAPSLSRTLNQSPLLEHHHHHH and give its measured glycan array binding signal (z-score).
2.93
